Assay: Cytotoxicity against GFP-positive human CEM cells expressing CD4+,CXCR4 and CCR5 assessed as cell viability at 1 uM after 24 hrs by Guava viacount assay
Format: cell-based, CCRF-CEM
Settings: read-out: Activity
compounds and their reported viability at 24 h, 1 µM
Expressed in %, but write only the number.

Cn1ccc(=O)c(C(=O)Nc2nsc3ccc([N+](=O)[O-])cc23)c1
89.6

Proceed to the following item.
Given the compound "Cc1c2ccnc(Cl)c2cc2c3cn(C)ccc-3nc12" , what is its reported viability at 24 h, 1 µM? 85.5

---

Each entry below carries its reported viability at 24 h, 8 µM.
Assay: Cytotoxicity against GFP-positive human CEM cells expressing CD4+,CXCR4 and CCR5 assessed as cell viability at 8 uM after 24 hrs by Guava viacount assay
Assay type: cell-based, CCRF-CEM
Details: read-out: Activity
Respond with the bare value in %.

Cc1c2ccnc(Cl)c2cc2c3cn(C)ccc-3nc12
19.9

Please examine the following record next.
Any idea what viability at 24 h, 8 µM was measured for "Cn1ccc(=O)c(C(=O)Nc2nsc3ccc([N+](=O)[O-])cc23)c1" ? 80.9

---

Assay: Therapeutic index, ratio of CC50 for GFP-positive human CEM cells expressing CD4+,CXCR4 and CCR5 to EC50 for HIV1 isolate 2948 harboring protease G48V/L90M mutant infected in GFP-positive human CEM cells expressing CD4+,CXCR4 and CCR5
Format: cell-based
Settings: ccrf-cem, read-out: TI
experimental endpoint: selectivity ratio

Item "Cn1ccc(=O)c(C(=O)Nc2nsc3ccc([N+](=O)[O-])cc23)c1" has what recorded selectivity ratio? > 71

---

System: Human immunodeficiency virus 1
Assay: Antiviral activity against INI-resistant HIV1 isolate 11845 harboring integrase G140S/Q148H mutant infected in GFP-positive human CEM cells expressing CD4+,CXCR4 and CCR5 after 3 days
Assay type: functional, organism-based
Conditions: Human immunodeficiency virus 1, isolate 11845, CCRF-CEM, 72 h
experimental endpoint: pEC50
# log scale: pEC50 equals minus log10 of the concentration in mol/L

Would you mind telling me what pEC50 value was observed for "Cn1ccc(=O)c(C(=O)Nc2nsc3ccc([N+](=O)[O-])cc23)c1" ? 5.82

---

Experiment: Therapeutic index, ratio of CC50 for GFP-positive human CEM cells expressing CD4+,CXCR4 and CCR5 to EC50 for […] HIV1 E00443 reverse transcriptase D67N/K70R/Y115F/Q151M/M184V/K219Q mutant infected in GFP-positive human CEM cells expressing CD4+,CXCR4 and CCR5
Type: cell-based
Conditions: ccrf-cem, read-out: TI
experimental endpoint: selectivity ratio

Give the measured selectivity ratio of "Cn1ccc(=O)c(C(=O)Nc2nsc3ccc([N+](=O)[O-])cc23)c1" . > 77

---

System: Human immunodeficiency virus 1
Assay: Antiviral activity against […]-resistance HIV1 E00443 harboring reverse transcriptase D67N/K70R/Y115F/Q151M/M184V/K219Q mutant infected in GFP-positive human CEM cells expressing CD4+,CXCR4 and CCR5 after 3 days
Type: functional, organism-based
Conditions: Human immunodeficiency virus 1, E00443, CCRF-CEM, 72 h
experimental endpoint: EC50
State the result as a value with its unit after it.

Look at this compound and give its reported EC50. "Cn1ccc(=O)c(C(=O)Nc2nsc3ccc([N+](=O)[O-])cc23)c1" 1300 nM

---

Assay: Cytotoxicity against GFP-positive human CEM cells expressing CD4+,CXCR4 and CCR5 assessed as cell viability at 4 uM after 24 hrs by Guava viacount assay
Assay type: cell-based, CCRF-CEM
Conditions: read-out: Activity
Quick list: viability at 24 h, 4 µM per entry.

Cn1ccc(=O)c(C(=O)Nc2nsc3ccc([N+](=O)[O-])cc23)c1
81.5%

Sample "Cc1c2ccnc(Cl)c2cc2c3cn(C)ccc-3nc12" — what was its viability at 24 h, 4 µM? 33.2%

---

Assay: Cytotoxicity against GFP-positive human CEM cells expressing CD4+,CXCR4 and CCR5 assessed as cell viability at 16 uM after 24 hrs by Guava viacount assay
Assay type: cell-based, CCRF-CEM
Conditions: read-out: Activity
viability at 24 h, 16 µM values for the compounds below.
Please provide the amount together with its unit, number first.

Cc1c2ccnc(Cl)c2cc2c3cn(C)ccc-3nc12
11.9%

I would be grateful if you could share the reported viability at 24 h, 16 µM for "Cn1ccc(=O)c(C(=O)Nc2nsc3ccc([N+](=O)[O-])cc23)c1" . 78.7%

---

Assay: Cytotoxicity against GFP-positive human CEM cells expressing CD4+,CXCR4 and CCR5 assessed as cell viability at 100 uM after 24 hrs by Guava viacount assay (reference value: 98%)
Type: cell-based, CCRF-CEM
Conditions: read-out: Activity
experimental endpoint: viability at 24 h, 100 µM
Provide a numeric answer, followed by its unit.

Look up viability at 24 h, 100 µM: "Cn1ccc(=O)c(C(=O)Nc2nsc3ccc([N+](=O)[O-])cc23)c1" 68.8%

---

Experiment: Therapeutic index, ratio of CC50 for GFP-positive human CEM cells expressing CD4+,CXCR4 and CCR5 to EC50 for HIV1 3B infected in GFP-positive human CEM cells expressing CD4+,CXCR4 and CCR5
Assay type: cell-based, CCRF-CEM
Conditions: read-out: TI
experimental endpoint: selectivity ratio

Please report the recorded selectivity ratio for "Cn1ccc(=O)c(C(=O)Nc2nsc3ccc([N+](=O)[O-])cc23)c1" . > 166

---

Assay: Therapeutic index, ratio of CC50 for GFP-positive human CEM cells expressing CD4+,CXCR4 and CCR5 to EC50 for HIV1 97USSN54 infected in GFP-positive human CEM cells expressing CD4+,CXCR4 and CCR5
Assay type: cell-based, CCRF-CEM
Conditions: read-out: TI
experimental endpoint: selectivity ratio

Returns the measured selectivity ratio for the input compound. Input: "Cn1ccc(=O)c(C(=O)Nc2nsc3ccc([N+](=O)[O-])cc23)c1" > 111

---

Experiment: Therapeutic index, ratio of CC50 for GFP-positive human CEM cells expressing CD4+,CXCR4 and CCR5 to EC50 for maraviroc-resistant HIV1 BAL R5 harboring envelop V3 A19T/L20F/T22A/E25D/126V mutant infected in GFP-positive human CEM cells expressing CD4+,CXCR4 and CCR5
Assay type: cell-based
Conditions: ccrf-cem, read-out: TI
experimental endpoint: selectivity ratio

Name the recorded selectivity ratio for "Cn1ccc(=O)c(C(=O)Nc2nsc3ccc([N+](=O)[O-])cc23)c1" . > 111
